The measurements presented in this section are drawn from PubChem BioAssay AID2252.

- Tested on: THP-1 viability, CellTiter-Glo luminescence, 72 h
- experiment notes: PubChem AID 2252
quantity kind: EC50

// worked examples, EC50 included
COc1cccc(/C=N/NC(=O)c2ccoc2C)c1O	4.3 µM
COc1ccc2nc(Nc3ccccc3)sc2c1	< 0.1 µM
CCc1c(C)n([O-])c2c([n+]1=O)CCCCC2	< 0.1 µM
NCCCC[C@H]1CN=C(N)N1CCC12CC3CC(CC(C3)C1)C2	49.4 µM
Cc1ccc(NC(=O)COc2ccccc2CNC(C)(C)CC(C)(C)C)cc1	9.23 µM

### Prompt Give EC50 for "NC[C@@H]1O[C@H](C23CC4CC(CC(C4)C2)C3)Cc2c1ccc(O)c2O"
### Response 3.6 µM

### Prompt Give EC50 for "Cc1ccc(-c2csc(NC(=O)C[n+]3cc(-c4ccccc4)n4c3CCC4)n2)cc1"
### Response 8.47 µM

### Prompt Give EC50 for "CCCCCc1ccc(OCCC[n+]2ccccc2)c(CCCCC)c1"
### Response 1.59 µM

### Prompt Give EC50 for "Cc1ccc2nc(N(CCCN(C)C)C(=O)c3ccc4c(c3)CCCC4)sc2c1"
### Response 9.42 µM

### Prompt Give EC50 for "CCOc1cccc(CNCCc2c(C)[nH]c3ccc(OC(F)(F)F)cc23)c1O"
### Response 3.51 µM

### Prompt Give EC50 for "CCOc1ccc(/C=N/NC(=O)c2[nH]ncc2Br)c(O)c1"
### Response 1.47 µM

### Prompt Give EC50 for CC(C(=O)NC1C=CS(=O)(=O)C1)N1C(=O)/C(=C/c2cccc(Cl)c2)SC1=S (stereo unspecified)
### Response 24.5 µM

### Prompt Give EC50 for "Cc1cc(Cl)c(OCCCNCc2ccccc2)c(Br)c1"
### Response 21.4 µM

### Prompt Give EC50 for "COC(=O)C1=C(C(=O)OC)SC(=C2C(=S)C(C)(C)N(C(=O)C3CC3)c3ccccc32)S1"
### Response 30.9 µM

###

# pEC50 per record follows
- Tested on: THP-1 viability, CellTiter-Glo luminescence, 72 h
- experiment notes: PubChem AID 2252
Scale explanation: pEC50 corresponds to minus log10 of a concentration expressed in moles per litre.

// worked examples, pEC50 included
Cc1nc2ccccn2c1C(=O)N/N=C/c1ccc([N+](=O)[O-])o1	4.86
COc1ccc(/C=N/NC(=O)c2cc3c(OC)ccc(OC)c3[nH]2)cc1O	5.60
CCCCCCCCCCOC(=O)Cn1c(COc2cccc(OC)c2)[n+](C)c2ccccc21	5.62
Nc1nc(Nc2ccccc2)nc2ccccc12	5.48
CCCC(=O)NC(c1ccco1)c1cc([N+](=O)[O-])c2cccnc2c1O (stereo not given)	4.64
OC(c1cc(C(F)(F)F)nc2c(C(F)(F)F)cccc12)C1CCCCN1 (stereo not given)	5.12

### Prompt // fetch pEC50; item: "COc1cccc(CNCCc2c[nH]c3ccccc23)c1OCc1ccccc1" ; system: THP-1 viability, CellTiter-Glo luminescence, 72 h
### Response 5.21

### Prompt // fetch pEC50; item: "O=C(CSc1nc2ccccc2s1)N/N=C/c1cc([N+](=O)[O-])ccc1O" ; system: THP-1 viability, CellTiter-Glo luminescence, 72 h
### Response 4.56

### Prompt // fetch pEC50; item: "O=C(Cn1nc(CNc2ccc(Br)cc2)[n+]2c1CCCCC2)c1ccc([N+](=O)[O-])cc1" ; system: THP-1 viability, CellTiter-Glo luminescence, 72 h
### Response 4.56

### Prompt // fetch pEC50; item: CC(C(=O)c1ccc(-c2ccccc2)cc1)[n+]1cccc(NC(=O)c2ccccc2)c1 (stereo not given) ; system: THP-1 viability, CellTiter-Glo luminescence, 72 h
### Response 4.75

###

# EC50 per record follows
- System: THP-1 viability, CellTiter-Glo luminescence, 72 h
- experiment notes: PubChem AID 2252

O=C(Nc1nc(-c2ccccn2)cs1)c1ccc(Cl)s1	0.84 µM
C/C(=N\NC(=O)c1ccc(Cl)cc1)c1ccccn1	0.97 µM
O=C(CN1C2=NCCCN2c2ccccc21)c1ccc(Br)s1	41.9 µM
CCCCCCCCCCOC(=O)Cn1c(COc2cccc(C)c2)[n+](C)c2ccccc21	2.43 µM
COc1ccc(Nc2c3c(nc4ccc(C)cc24)CCC3)cc1	19 µM

### Prompt Give EC50 for "Fc1cccc(NC(=S)NCc2ccc(Cl)cc2)c1"
### Response 46.7 µM

### Prompt Give EC50 for "COc1cc([N+](=O)[O-])cc(/C=N/NC(=O)c2cccnc2)c1O"
### Response 29.7 µM

### Prompt Give EC50 for "CCCC(=O)c1c(NC)cc(C)oc1=O"
### Response 15.9 µM

### Prompt Give EC50 for CCc1ccc2c(c1)Sc1ccccc1CC2N1CCN(C)CC1 (stereo not drawn)
### Response 11.8 µM

### Prompt Give EC50 for OC(CNCc1ccco1)Cn1c2ccc(Br)cc2c2cc(Br)ccc21 (stereo not drawn)
### Response 9.67 µM

### Prompt Give EC50 for "CCN1CCN(CCNC(=O)c2ccc(/C=C3/Sc4ccccc4N(Cc4cccc(Cl)c4)C3=O)cc2)CC1"
### Response 8.93 µM

### Prompt Give EC50 for "CN(C)c1ccc(/C=C/c2ccc3ccccc3[n+]2C)cc1"
### Response 0.71 µM

### Prompt Give EC50 for "O[C@@H](c1cc(C(F)(F)F)nc2c(C(F)(F)F)cccc12)[C@H]1CCCCN1"
### Response 3.98 µM

### Prompt Give EC50 for "O=C(/C=C/c1ccc(Cl)cc1)NCCCn1ccnc1"
### Response < 0.1 µM

### Prompt Give EC50 for "CCCCNC(=S)Nc1ccc([N+](=O)[O-])cc1"
### Response 28.8 µM

### Prompt Give EC50 for "CCOc1ccc(-c2c[n+]3c(n2-c2ccccc2)CCCCC3)cc1"
### Response 25.6 µM

### Prompt Give EC50 for "CC(C)[C@H](NC(=O)c1ccccc1Cl)C(=O)Nc1nc(-c2ccccn2)cs1"
### Response 6.18 µM

### Prompt Give EC50 for "CN(C)CCCN(C(=O)c1cc2cc([N+](=O)[O-])ccc2s1)c1nc2cc3c(cc2s1)OCCO3"
### Response 3.04 µM

###

- Tested on: THP-1 viability, CellTiter-Glo luminescence, 72 h
- experiment notes: PubChem AID 2252
pEC50: −log10 of the molar value.
# pEC50 per record follows

// worked examples, pEC50 included
COC12C(COC(N)=O)C3=C(C(=O)C(C)=C(N)C3=O)N1CC1C2N1C (stereo not given)	4.94
O=C(NNc1nc2ccc(F)cc2s1)c1cccc(F)c1	5.09
CCCCCc1ccc(OCCCC[n+]2cccc(C)c2)c(CCCCC)c1	5.98

### Prompt Give pEC50 for "COc1ccc2[nH]c3c(C)c4ccncc4c(C)c3c2c1"
### Response 5.84

### Prompt Give pEC50 for "O=C1C(=O)c2ccccc2-c2ccccc21"
### Response 5.65

### Prompt Give pEC50 for "COc1ccc(/C=N/Nc2cc(C)nc3ccc(Br)cc23)cc1"
### Response 5.38

###

- Tested on: THP-1 viability, CellTiter-Glo luminescence, 72 h
- experiment notes: PubChem AID 2252
# EC50 per record follows

// worked examples, EC50 included
Cc1cc(C)nc(/N=C(\N)Nc2ccc(SC(F)F)cc2)n1	12.8 µM
CN(C)CCCN1c2ccccc2Sc2ccc(C(F)(F)F)cc21	14.6 µM
Cc1cccc2c1Sc1ccc(Cl)cc1CC2N1CCNCC1 (configuration not stated)	6.59 µM
C#CCOCCOCCOCCNc1nc(N2CCN(C(=O)CCCCCCCCCCNC(=O)[C@H]([C@@H](C)CC)n3cc(CCCCN=C(N)N)nn3)CC2)nc(N2CCN(C(=O)CCCCCCCCCCNC(=O)[C@@H]([C@H](C)O)n3cc(C)nn3)CC2)n1	2.98 µM
Clc1ccc(C[n+]2cc(-c3ccc(Cl)cc3)n3c2CCC3)cc1	22.7 µM

### Prompt Give EC50 for "O=C(Nc1nnc(-c2ccco2)o1)c1cccc(Cl)c1"
### Response 21.1 µM

### Prompt Give EC50 for "CCOC(=O)Cn1c(=N)n(CCOc2ccc3ccccc3c2)c2ccccc21"
### Response 17.7 µM

###

- Tested on: THP-1 viability, CellTiter-Glo luminescence, 72 h
- experiment notes: PubChem AID 2252
quantity kind: EC50

### Prompt Give EC50 for O=C(CCN1CCC(c2ccccc2)C1)c1ccc2c(c1)OCCO2 (configuration not stated)
### Response 21.6 µM

### Prompt Give EC50 for "Nc1nonc1-n1nnc(C(=O)N/N=C/c2cc(Br)ccc2O)c1CSC1=NCCS1"
### Response 1.29 µM

### Prompt Give EC50 for "Cc1cc([N+](=O)[O-])cc(/C=N/n2c(C)nc3ccccc3c2=O)c1O"
### Response 28.2 µM
